Test system: MUC1-wt
protocol.description: Immunofluorescence imaging of MUC1-wt in P cells (Example 2)
Format: cell-based
recorded.conditions: 48 hr, DMSO = 0, JQ1 (250 nM) = −100% activity
endpoint.name: WT ECMax (%)

Take a look at these entries with their results.
molecule	WT ECMax (%)
CC[C@@]1(C)[C@@H]2CC[C@@H](C2)[C@@H]1N (single isomer, unassigned) [Compound 202-P2]	~175%
CC[C@]1(C)[C@H]2CC[C@H](C2)[C@H]1N (single isomer, unassigned) [Compound 202-P1]	~150%

Query block: I'm curious: which WT ECMax (%) was measured for Cl.N[C@@H]1[C@@H]2CC[C@@H](C2)C12CCC2 (racemic) [Compound 208] tested on MUC1-wt?
Result block: ~125%
